- Tested on: T47D
- Test Description: CellTiterGlo luminescent cell viability assay, T47D
- Details: Homo sapiens, 72 h, read-out: Cytotoxicity IC50 T47D
Readout Type: pIC50
Answers are plain numbers, as −log10 of the molar value.

State, in one line, measured pIC50 of CC(C)c1cc2c(cc1O)[C@@]1(C)CCC[C@@](C)(CN3C(=O)c4ccccc4C3=O)[C@@H]1CC2 [Compound 6, 18-(phthalimid-2-yl)ferruginol]
4.53
